Form field: pIC50 (one value per entry).
Biological target: PARP1 (Gallus gallus)
Sequence (P26446 whole entry): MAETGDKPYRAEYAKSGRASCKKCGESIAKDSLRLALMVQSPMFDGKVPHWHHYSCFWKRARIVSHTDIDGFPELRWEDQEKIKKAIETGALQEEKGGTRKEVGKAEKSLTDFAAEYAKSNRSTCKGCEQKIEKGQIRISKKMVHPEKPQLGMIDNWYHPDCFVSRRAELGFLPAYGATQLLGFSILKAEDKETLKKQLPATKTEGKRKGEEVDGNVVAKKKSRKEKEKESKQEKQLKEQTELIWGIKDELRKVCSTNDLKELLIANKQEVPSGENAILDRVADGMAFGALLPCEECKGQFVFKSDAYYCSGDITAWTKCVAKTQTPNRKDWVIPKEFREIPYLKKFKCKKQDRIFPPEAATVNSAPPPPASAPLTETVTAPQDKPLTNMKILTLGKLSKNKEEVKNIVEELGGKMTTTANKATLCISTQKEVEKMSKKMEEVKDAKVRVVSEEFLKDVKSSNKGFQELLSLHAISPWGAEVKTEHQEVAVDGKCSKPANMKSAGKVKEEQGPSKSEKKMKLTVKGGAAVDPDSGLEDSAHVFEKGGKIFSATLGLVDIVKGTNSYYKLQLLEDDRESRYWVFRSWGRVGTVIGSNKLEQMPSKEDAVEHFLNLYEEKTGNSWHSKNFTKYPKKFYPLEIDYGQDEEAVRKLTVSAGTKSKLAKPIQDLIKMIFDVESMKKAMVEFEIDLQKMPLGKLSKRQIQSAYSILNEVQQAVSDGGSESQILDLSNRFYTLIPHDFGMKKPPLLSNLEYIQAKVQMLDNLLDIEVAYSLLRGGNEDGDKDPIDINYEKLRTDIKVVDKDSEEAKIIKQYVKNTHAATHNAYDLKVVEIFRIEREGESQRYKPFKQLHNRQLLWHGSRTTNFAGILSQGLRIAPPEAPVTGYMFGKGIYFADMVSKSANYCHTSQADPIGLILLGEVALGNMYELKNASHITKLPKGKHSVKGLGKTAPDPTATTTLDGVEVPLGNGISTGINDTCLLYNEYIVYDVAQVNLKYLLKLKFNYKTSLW
The meaning of pIC50 here: minus log10 of the concentration in molar units.

C[C@]1(c2nc3c(C(N)=O)cccc3[nH]2)CCCN1 ... 7.98

Continue with the next compound.
Report pIC50 for NC(=O)c1cccc2cn(-c3ccc([C@@H]4CCCNC4)cc3)nc12 please.
7.30
